# test description: qHTS of pediatric cancer cell lines to identify multiple opportunities for drug repurposing: Confirmatory screen for Saos-2 cells (AID 1347127); also: nearly all actives have a fitted effect of over 60% in size
# details: Saos-2 osteosarcoma cell viability; series mostly up to 45.9 µM
Results filed as inconclusive are left out. The source made the active and inactive calls. Calls follow the shape of the dose curve; as a rule, active = well fitted cell-killing curve with a large enough effect; inconclusive = small, poorly fitted or top-dose-only effect, or effect the other way; inactive = no such curve, though single readings can be large or run the other way.
Permitted responses: active, inactive

Please review the following examples before continuing.
CCCCCCCCC(=O)NCc1ccc(O)c(OC)c1
inactive
CCc1ccc(C2CCNCC2)cc1
inactive
COc1ccc2c(C(=O)c3ccc(Cl)cc3)c(C)n(CC(=O)O)c2c1
inactive

Ask: Called result for C[C@@H]1O[C@@H](O[C@@H]2C=C3CC[C@@H]4[C@H](CC[C@]5(C)[C@@H](c6ccc(=O)oc6)CC[C@]45O)[C@@]3(C)CC2)[C@H](O)[C@H](O)[C@H]1O
Result: active

Ask: Call for entry COc1ccc(C(=O)N2CCCC2=O)cc1 :
Result: inactive
